- TARGET: Cytochrome P450 3A4 (Homo sapiens) (UniProt P08684)
- Sequence (P08684 whole entry, looked up): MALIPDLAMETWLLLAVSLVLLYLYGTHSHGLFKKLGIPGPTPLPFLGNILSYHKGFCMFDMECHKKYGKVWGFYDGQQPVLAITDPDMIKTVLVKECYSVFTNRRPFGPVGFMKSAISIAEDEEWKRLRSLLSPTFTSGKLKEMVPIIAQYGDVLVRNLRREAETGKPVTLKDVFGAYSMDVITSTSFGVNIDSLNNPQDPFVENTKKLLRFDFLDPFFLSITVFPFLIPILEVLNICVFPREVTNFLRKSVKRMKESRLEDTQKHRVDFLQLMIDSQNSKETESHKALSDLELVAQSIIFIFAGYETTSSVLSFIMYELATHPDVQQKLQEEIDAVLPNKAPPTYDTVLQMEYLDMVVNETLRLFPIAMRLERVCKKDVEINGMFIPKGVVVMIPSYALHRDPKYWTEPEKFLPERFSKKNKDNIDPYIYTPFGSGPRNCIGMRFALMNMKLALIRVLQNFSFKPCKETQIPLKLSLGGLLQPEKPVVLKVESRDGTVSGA
- MEASUREMENT_NOTES: qHTS Assay for Activators of Cytochrome P450 3A4 (AID 885); also: nearly all actives have a fitted effect of over 65% in size
- CONDITION_INFO: recombinant CYP3A4, Luciferin-PPXE luminescence, 60 min; series mostly up to 57.1 µM
The source made the active and inactive calls. Calls follow the shape of the dose curve; as a rule, active = well fitted activation curve with a large enough effect; inconclusive = small, poorly fitted or top-dose-only effect; inactive = no such curve, though single readings can be large or run the other way.
READOUT_NAME: activity change, positive = activation

MOLECULE	READOUT_NAME	RESULT
COC(=O)CCC(C)C1CCC2C3C(C[C@H](O)C12C)C1(C)CC[C@@H](O)CC1C[C@H]3O (some centres undefined)	activity change, positive = activation	inactive
COc1ccc2c(c1)OC/C(=C/c1ccc(OC)c(OC)c1)C2=O	activity change, positive = activation	inactive
CCC1=C2CC[C@H]3C(=O)N(C)C(=O)[C@H]3[C@H]2[C@@]2(Cc3ccccc3)C(=NCC(=O)OC)OC(=O)N2C1=O	activity change, positive = activation	inactive
CC(C)=CCC/C(C)=C/CO/N=C1/[C@H]2O[C@@H]2[C@@H](O)[C@H]2[C@H]1CCn1c(=O)n(Cc3cc4c(cc3Cl)OCO4)c(=O)n12	activity change, positive = activation	-56.5% [at 11.4 µM] (inactive)

====

- TARGET: Vitamin D3 receptor (Homo sapiens)
- MEASUREMENT_NOTES: qHTS assay for small molecule agonists of vitamin D receptor signaling (AID 588543);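 also: 0% = DMSO basal and 100% = reference agonist control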
- CONDITION_INFO: HEK293T VDR-UAS-bla, beta-lactamase ratio, 16 h; series mostly up to 76.8 µM
Inconclusive results are not listed. The source made the active and inactive calls. Calls come from the whole dose curve.
READOUT_NAME: outcome

COMPOUND	READOUT_NAME	RESULT
O=c1oc(=O)c2cc3c(=O)oc(=O)c3cc12	outcome	inactive
CCCCCCCCCCCCCCC(=O)OC	outcome	inactive
CCOCCOCCOCC	outcome	inactive
CCOC(=O)CC(O)(CC(=O)OCC)C(=O)OCC	outcome	inactive
Cc1ccc(Cl)cc1Cl	outcome	inactive
CCCCCCCCCCCC[N+](C)(C)C	outcome	inactive
CC(COc1ccc(C(C)(C)C)cc1)OS(=O)OCCCl (stereo not drawn)	outcome	inactive
O=S(=O)(O)c1ccc(N=Nc2cc(S(=O)(=O)O)c3ccccc3c2O)c2ccccc12	outcome	inactive
CCNc1nc(N)nc(Cl)n1	outcome	inactive
CC(=O)Nc1ccc(N=Nc2cc(C)ccc2O)cc1	outcome	inactive
CC(C)(C)[C@H](O)[C@H](Cc1ccc(Cl)cc1)n1cncn1	outcome	inactive
CCC/C(=N\OCC)C1=C(O)CC(O)(CC(C)S(=O)(=O)CC)CC1=O (stereo not drawn)	outcome	inactive
CC/C=C\CCOC(=O)c1ccccc1O	outcome	inactive

====

- TARGET: Cytochrome P450 3A4 (Homo sapiens)
- MEASUREMENT_NOTES: qHTS Assay for Activators of Cytochrome P450 3A4 (AID 885); also: nearly all actives have a fitted effect of over 65% in size
- CONDITION_INFO: recombinant CYP3A4, Luciferin-PPXE luminescence, 60 min; series mostly up to 57.1 µM
Activity calls are given as the source filed them. The call rests on the fitted dose curve; in most records, active means well fitted activation curve with a large enough effect; inconclusive means small, poorly fitted or top-dose-only effect; inactive means no such curve, though single readings can be large or run the other way.

CHEM_SMILES	activity change, positive = activation
COC(=O)N1[C@H](Cc2ccccc2)C=C[C@]1(C)C(=O)NCc1ccc(N(C)C)cc1	inactive
CCC1=C2CC[C@H]3C(=O)N(CC)C(=O)[C@H]3[C@H]2[C@@]2(C)C(=NCC(=O)OC)OC(=O)N2C1=O	inactive
CCC1=C(OC(=O)N(CC)CC)N2C(=O)OC(=NCCc3c[nH]c4ccccc34)[C@]2(Cc2ccccc2)[C@H]2C1=CC[C@H]1C(=O)N(CC)C(=O)[C@H]12	inactive
CC(=O)OC[C@@H]1O[C@@H](O/N=C2/C[C@@H](O)[C@@H](O)[C@@H]3[C@@H]4C(=O)N(Cc5ccc6c(c5)OCO6)C(=O)[C@H]4CC[C@@H]23)[C@H](OC(C)=O)[C@H](OC(C)=O)[C@@H]1OC(C)=O	-36.6% [at 11.4 µM] (inactive)
COc1ccc(O[C@H]2C=C[C@@H](c3ccccc3)O[C@H]2COC(=O)CC/C(C)=N\O[C@@H](C)c2cn([C@H]3COC[C@H]3O)nn2)cc1	-77.3% [at 11.4 µM] (inactive)
COC(=O)[C@@H]1C[C@@H]2CC[C@@H](O)C[C@@H]2N1Cc1ccc(N2CCOCC2)cc1	inactive
C[C@@H]1C=C[C@](Cc2ccccc2)(C(=O)NCCc2c[nH]c3ccccc23)N1C(=O)c1ccccc1	inactive
